Parameter: Rate. Scope: all listed entries.
Test system: Hamster
Method Notes: Rate of methylthio adduct formation catalyzed by partially purified hamster hepatic enzyme per mg protein per 10 min
Format: ADME
Stated Conditions: cricetinae, in vitro
Quick reminder: number only, in nmol/mg/10 min, skip the unit.

Smiles: CCCCOc1ccc2c(c1)Cc1cc(N(O)C(C)=O)ccc1-2
Observed Value: 0
--
Smiles: CC(=O)N(O)c1ccc2c(c1)Cc1ccccc1-2
Observed Value: 7.5
--
Smiles: COc1ccc2c(c1)Cc1cc(N(O)C(C)=O)ccc1-2
Observed Value: 1.2
--
Smiles: CC(=O)N(O)c1ccc2c(c1)Cc1cc(C#N)ccc1-2
Observed Value: 24.9

Q. # query: Rate of entry `CC(=O)c1ccc2c(c1)Cc1cc(N(O)C(C)=O)ccc1-2`
A. 61

Q. # query: Rate of entry `CC(=O)N(O)c1ccc2c(c1)Cc1cc(Br)ccc1-2`
A. 10.5

Q. # query: Rate of entry `CC(=O)N(O)c1ccc2c(c1)Cc1cc(I)ccc1-2`
A. 2.4

Q. # query: Rate of entry `CC(=O)N(O)c1ccc2c(c1)Cc1cc(F)ccc1-2`
A. 15.2

---

Method Notes: Observed log rate of methylthio adduct formation
Type: ADME
Metric Name: Log rate
Just the number, please, no unit after it.

Smiles: CC(=O)c1ccc2c(c1)Cc1cc(N(O)C(C)=O)ccc1-2
Log rate: 1.79

Smiles: CC(=O)N(O)c1ccc2c(c1)Cc1cc(F)ccc1-2
Log rate: 1.18

Smiles: CC(=O)N(O)c1ccc2c(c1)Cc1cc(I)ccc1-2
Log rate: 0.37

Smiles: CC(=O)N(O)c1ccc2c(c1)Cc1ccccc1-2
Log rate: 0.87

Smiles: COc1ccc2c(c1)Cc1cc(N(O)C(C)=O)ccc1-2
Log rate: 0.09

Smiles: CC(=O)N(O)c1ccc2c(c1)Cc1cc(Br)ccc1-2
Log rate: 1.02

Please turn your attention to the following entry.
Q. # query: Log rate of entry `CC(=O)N(O)c1ccc2c(c1)Cc1cc(C#N)ccc1-2`
A. 1.4
